- TESTED SYSTEM: NEMO (Homo sapiens, UniProt Q9Y6K9)
- Sequence (Q9Y6K9 whole entry, species assumed): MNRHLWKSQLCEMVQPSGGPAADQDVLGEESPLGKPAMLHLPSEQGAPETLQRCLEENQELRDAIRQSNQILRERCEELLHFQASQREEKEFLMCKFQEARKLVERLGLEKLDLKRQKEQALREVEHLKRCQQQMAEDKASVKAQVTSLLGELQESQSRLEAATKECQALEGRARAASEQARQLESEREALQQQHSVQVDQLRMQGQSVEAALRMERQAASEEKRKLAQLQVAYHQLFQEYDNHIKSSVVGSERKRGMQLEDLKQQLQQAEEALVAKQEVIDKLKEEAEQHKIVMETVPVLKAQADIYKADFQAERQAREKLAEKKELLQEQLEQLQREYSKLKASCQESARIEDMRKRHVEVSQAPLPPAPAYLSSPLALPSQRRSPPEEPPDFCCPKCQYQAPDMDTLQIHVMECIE
- PROTOCOL: NBD mutants: ability to bind to NEMO
- Format: binding
REPORTED PROPERTY: Binds to NEMO

// known answers, use as guide
LDFSWL (Hexapeptide variant of human IKK-beta NBD (SEQ ID NO2) having F in the 3rd position.) [NBD mutant]    Yes
LDWSYL (Hexapeptide variant of human IKK-beta NBD (SEQ ID NO2) having Y in the 5th position.) [NBD mutant]    No
LDWAWL (Hexapeptide variant of human IKK-beta NBD (SEQ ID NO2) having A in the 4th position.) [NBD mutant]    Yes
ADWSWL (Hexapeptide variant of human IKK-beta NBD (SEQ ID NO2) having A in the 1st position.) [NBD mutant]    Yes
LDASWL (Hexapeptide variant of human IKK-beta NBD (SEQ ID NO2) having A in the 3rd position.) [NBD mutant]    No
LDWEWL (Hexapeptide variant of human IKK-beta NBD (SEQ ID NO2) having E in the 4th position.) [NBD mutant]    Yes

Inquiry: Send back NEMO (Homo sapiens, UniProt Q9Y6K9) Binds to NEMO of LDASAL (Hexapeptide variant of human IKK-beta NBD (SEQ ID NO2) having A in the 3rd and 5th positions.) [NBD mutant] only.
Reply text: No

Inquiry: Send back NEMO (Homo sapiens, UniProt Q9Y6K9) Binds to NEMO of LAWSWL (Hexapeptide variant of human IKK-beta NBD (SEQ ID NO2) having A in the 2nd position.) [NBD mutant] only.
Reply text: No

Inquiry: Send back NEMO (Homo sapiens, UniProt Q9Y6K9) Binds to NEMO of LDWSWA (Hexapeptide variant of human IKK-beta NBD (SEQ ID NO2) having A in the 6th position.) [NBD mutant] only.
Reply text: Yes

Inquiry: Send back NEMO (Homo sapiens, UniProt Q9Y6K9) Binds to NEMO of LDYSWL (Hexapeptide variant of human IKK-beta NBD (SEQ ID NO2) having Y in the 3rd position.) [NBD mutant] only.
Reply text: Yes

Inquiry: Send back NEMO (Homo sapiens, UniProt Q9Y6K9) Binds to NEMO of LNWSWL (Hexapeptide variant of human IKK-beta NBD (SEQ ID NO2) having N in the 2nd position.) [NBD mutant] only.
Reply text: Yes

Inquiry: Send back NEMO (Homo sapiens, UniProt Q9Y6K9) Binds to NEMO of LDWSAL (Hexapeptide variant of human IKK-beta NBD (SEQ ID NO2) having A in the 5th position.) [NBD mutant] only.
Reply text: No

* * *

- TESTED SYSTEM: NEMO (Homo sapiens, UniProt Q9Y6K9)
- PROTOCOL: NBD mutants: ability to bind to NEMO
- Assay type: binding
REPORTED PROPERTY: Binds to NEMO

LDWSFL (Hexapeptide variant of human IKK-beta NBD (SEQ ID NO2) having F in the 5th position.) [NBD mutant]    Yes
LEWSWL (Hexapeptide variant of human IKK-beta NBD (SEQ ID NO2) having E in the 2nd position.) [NBD mutant]    Yes
LDSWSL (listed as Homo sapiens)    Yes
